Target: T1, recombinant human soluble gpNMB (recombinant human gpNMB-FLAG-His) (human, UniProt Q14956 23-498)
T1 sequence: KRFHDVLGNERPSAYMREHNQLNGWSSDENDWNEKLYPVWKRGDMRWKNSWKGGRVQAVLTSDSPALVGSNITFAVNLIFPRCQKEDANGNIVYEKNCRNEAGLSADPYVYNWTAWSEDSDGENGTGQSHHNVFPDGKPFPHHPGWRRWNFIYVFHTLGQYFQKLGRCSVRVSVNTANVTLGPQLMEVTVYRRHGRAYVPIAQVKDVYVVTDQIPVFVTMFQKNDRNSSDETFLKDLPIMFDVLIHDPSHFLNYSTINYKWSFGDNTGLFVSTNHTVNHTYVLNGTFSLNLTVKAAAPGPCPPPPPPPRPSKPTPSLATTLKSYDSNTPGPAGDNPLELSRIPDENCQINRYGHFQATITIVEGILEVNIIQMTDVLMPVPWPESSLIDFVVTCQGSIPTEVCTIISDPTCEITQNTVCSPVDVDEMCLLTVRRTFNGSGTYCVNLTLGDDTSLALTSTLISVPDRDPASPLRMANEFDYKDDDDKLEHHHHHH
Assay: antigen ELISA
pEC50: −log10 of the molar value.
Endpoint label: pEC50

| Binder | Endpoint label | Result |
| --- | --- | --- |
| hGPN18-2_H2L3 VL V99A (antibody, V domains shown) VH: QVQLVQSGPGLVQPTQTLTLTCSFSGFSLSTSVMGVGWIRQPSGKGLEWLADIWWDDDKDYNPSLKSRLTISKDTSKNQVVLTMTNMDTVDTATYYCARTYYSNYEYYGMDYWGQGTLVTVSS VL: DIVMTQSPDSLAVSLGERATINCRSSQTIILSNGNTYLEWYQQKPGQPPKLLIYKVSNRFSGVPDRFSGSGSGTDFTLTISSLQAEDVAVYYCFQGSHAPFTFGSGTKLEIKR | pEC50 | 8.00 |
| hGPN18-2_H2L3 VL Q27A (antibody, V domains shown) VH: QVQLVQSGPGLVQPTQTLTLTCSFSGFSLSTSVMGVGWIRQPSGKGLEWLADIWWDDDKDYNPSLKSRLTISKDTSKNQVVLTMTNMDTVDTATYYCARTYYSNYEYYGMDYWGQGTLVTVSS VL: DIVMTQSPDSLAVSLGERATINCRSSATIILSNGNTYLEWYQQKPGQPPKLLIYKVSNRFSGVPDRFSGSGSGTDFTLTISSLQAEDVAVYYCFQGSHVPFTFGSGTKLEIKR | pEC50 | 8.40 |
| hGPN18-2_H2L3 VL S25A (antibody, V domains shown) VH: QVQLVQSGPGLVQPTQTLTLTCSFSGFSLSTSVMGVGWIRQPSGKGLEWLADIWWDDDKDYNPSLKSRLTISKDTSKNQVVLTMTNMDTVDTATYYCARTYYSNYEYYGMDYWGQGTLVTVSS VL: DIVMTQSPDSLAVSLGERATINCRASQTIILSNGNTYLEWYQQKPGQPPKLLIYKVSNRFSGVPDRFSGSGSGTDFTLTISSLQAEDVAVYYCFQGSHVPFTFGSGTKLEIKR | pEC50 | 8.42 |
